# study-system: AKT1 (Homo sapiens, UniProt P31749, S473D)
# Sequence (P31749 118-480 S473D limits assumed): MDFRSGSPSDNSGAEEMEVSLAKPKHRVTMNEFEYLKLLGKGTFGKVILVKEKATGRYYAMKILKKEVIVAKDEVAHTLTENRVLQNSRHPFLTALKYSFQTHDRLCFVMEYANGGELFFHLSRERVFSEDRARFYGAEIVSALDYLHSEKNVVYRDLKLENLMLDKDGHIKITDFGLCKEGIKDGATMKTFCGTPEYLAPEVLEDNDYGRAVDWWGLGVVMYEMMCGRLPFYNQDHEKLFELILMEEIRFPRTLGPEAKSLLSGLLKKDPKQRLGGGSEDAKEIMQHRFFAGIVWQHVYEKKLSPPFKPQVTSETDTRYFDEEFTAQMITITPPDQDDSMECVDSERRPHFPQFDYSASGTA
# assay-summary: Determination of the IC50 for AKT1 (HTRF)
# measurement-setup: AKT1 without PH domain, activated by PDK1

compound	study-system	IC50
CN1CCCCC1C(NC(=O)Nc1ccc2[nH]nc(C#Cc3cccc(F)c3)c2c1)c1ccccc1 (centres unmarked)	AKT1 (Homo sapiens, UniProt P31749, S473D)	100 to 500 nM
O=C(Nc1ccc2[nH]ncc2c1)N[C@@H](c1ccc(Cl)c(Cl)c1)[C@@H]1CCCCN1	AKT1 (Homo sapiens, UniProt P31749, S473D)	< 100 nM
O=C(Nc1ccc2[nH]ncc2c1)OC(c1cccc(C(=O)Nc2ccccc2)c1)[C@@H]1CCCCN1 (some centres unmarked)	AKT1 (Homo sapiens, UniProt P31749, S473D)	100 to 500 nM
O=C(Nc1ccc2[nH]ncc2c1)N[C@@H](c1cc(Cl)cc(Cl)c1)[C@@H]1CCCCN1	AKT1 (Homo sapiens, UniProt P31749, S473D)	< 100 nM
O=C(Nc1ccc2[nH]ncc2c1)O[C@@H](c1cc(F)cc(Cl)c1)[C@H]1CCCCN1 [Ex 39c]	AKT1 (Homo sapiens, UniProt P31749, S473D)	100 to 500 nM
Nc1n[nH]c2ccc(NC(=O)N[C@@H](c3ccc(Cl)c(Cl)c3)[C@@H]3CCCCN3)cc12	AKT1 (Homo sapiens, UniProt P31749, S473D)	< 100 nM
CN1CCCCC1C(OC(=O)Nc1ccc2[nH]ncc2c1)c1cc(F)cc(Cl)c1 (centres unmarked)	AKT1 (Homo sapiens, UniProt P31749, S473D)	< 100 nM
O=C(Nc1ccc2[nH]ncc2c1)N[C@@H](c1ccccc1)[C@@H]1CCCCN1	AKT1 (Homo sapiens, UniProt P31749, S473D)	< 100 nM

Data credit: patent US20100298377A1
